- Assay Overview: log P determination by HPLC (EEC Directive 79/831 Annex V.A8, gradient method)
- Type: physicochemical
Measured Parameter: Physical data: logP

Worked examples, 6 compounds total:
Compound: Cc1csc2nc(-c3ccccc3Cl)c(/C=C/C(=O)NC3CCCC3)n12
Readout Number: 2.46
--
Compound: CC(C)(C)c1nn2c(/C=C/C(=O)Nc3ccc(OC(F)(F)F)cc3)c(-c3ccccc3Cl)nc2s1
Readout Number: 5.13
--
Compound: CC(C)C(NC(=O)C=Cc1c(-c2ccccc2Cl)nc2sc(C(F)(F)C(F)(F)F)nn12)C(F)(F)F (centres unmarked)
Readout Number: 4.62
--
Compound: Cc1cn2c(/C=C/C(=O)Nc3ccc(OC(F)(F)F)cc3)c(-c3ccccc3Cl)nc2s1
Readout Number: 3.9
--
Compound: COc1ccc(-c2nc3sc(C(F)(F)F)nn3c2/C=C/C(=O)NCC2CC2)cc1OC
Readout Number: 2.95
--
Compound: CC(NC(=O)/C=C/c1c(-c2ccccc2Cl)nc2sc(C(C)(C)C)nn12)C(F)(F)F (centres unmarked)
Readout Number: 3.88

(P) O=C(/C=C/c1c(-c2ccccc2Cl)nc2sc(-c3ccc(C(F)(F)F)cc3)nn12)NC1CC1
(Q) CC(C)NC(=O)/C=C/c1c(-c2cccnc2Cl)nc2sc(C(F)(F)F)nn12
INPUT: API: POST /compare with P and Q ; response names the item with higher Physical data: logP. Bench note: the answer is the label of the chosen record.
OUTPUT: P
